Experiment: Acute toxicity (LD50) of ACP in rats
Format: in vivo
Settings: in vivo; oral, Sprague-Dawley rat, male
observed_property: LD50 at 168 h

CC(=O)Oc1ccc(C(OC(C)=O)OC(C)=O)cc1OC(C)=O [ACP, 3,4-diacetoxybenzylidene diacetate] : > 5000 mg/kg

* * *

Test: Acute toxicity (LD50) of PAL in female Jcl:ICR mice
Conditions: mouse, in vivo, ip, intraperitoneal
Protocol: For oral administration, a suspension of PAL dispersed in an aqueous solution of 0.2% CMC was prepared (a part of PAL was dissolved in the solution) and administered to the animals via a stomach sonde. For intraperitoneal administration, a suspension of PAL dispersed in an aqueous physiological saline solution was prepared (a part of PAL was dissolved in the solution) and injected to the animals with a syringe.
observed_property: LD50 at 168 h (mg/kg)

O=Cc1ccc(O)c(O)c1 [PAL, 3,4-dihydroxybenzaldehyde] : 404

* * *

Experiment: Acute toxicity (LD50) of ACP in mice
Format: in vivo
Settings: in vivo, sc; subcutaneous, Jcl:ICR mouse, male
observed_property: LD50 at 168 h

CC(=O)Oc1ccc(C(OC(C)=O)OC(C)=O)cc1OC(C)=O [ACP, 3,4-diacetoxybenzylidene diacetate] : > 4000 mg/kg

* * *

Experiment: Acute toxicity (LD50) of PAC in male mice
Format: in vivo
Conditions: mouse, in vivo, ip, intraperitoneal, observed 8 days
observed_property: LD50 at 192 h

O=C(O)c1ccc(O)c(O)c1 [PAC, 3,4-dihydroxybenzoic acid] : ≥ 400 mg/kg

* * *

Experiment: Acute toxicity (LD50) of PAL in female Jcl:ICR mice
Conditions: mouse, in vivo, oral
observed_property: LD50 at 168 h (mg/kg)

O=Cc1ccc(O)c(O)c1 [PAL, 3,4-dihydroxybenzaldehyde] : 1500

* * *

Assay: Acute toxicity (LD50) of ACP in rats
Assay type: in vivo
Conditions: in vivo, sc; subcutaneous, Jcl:Wistar rat, male
observed_property: LD50 at 168 h

CC(=O)Oc1ccc(C(OC(C)=O)OC(C)=O)cc1OC(C)=O [ACP, 3,4-diacetoxybenzylidene diacetate] : > 4000 mg/kg
